B1: C8orf76 (parent)
chain: YCAKLCEPQWFYEETESSDDVEVL

variants of: B1; test: protein stability index of a GFP-peptide fusion (GPS, HEK-293T) (PSI 1-6); higher = more stable; conditions: c terminus: a fixed tail appended;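 further: lentivirally expressed fusions sorted by FACS into six bins by GFP to DsRed ratio, PSI derived from sequencing read proportions per bin multiplied by bin number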
Response field class: string, computed from recorded protein stability index by ranges zone 1: < 2; zone 2: ≥ 2 and < 3; zone 3: ≥ 3

[[record]]
mutation_spec = "Q9T"
cat = "zone 2"

[[record]]
mutation_spec = "P8D"
cat = "zone 3"

[[record]]
mutation_spec = "Q9A"
cat = "zone 2"

[[record]]
mutation_spec = "E13L"
cat = "zone 2"


*Q* Given `T15L` , name the class its protein stability index places it in.
*A* zone 1

*Q* Given `V21G` , name the class its protein stability index places it in.
*A* zone 2

*Q* Given `P8M` , name the class its protein stability index places it in.
*A* zone 2

*Q* Given `Y12L` , name the class its protein stability index places it in.
*A* zone 2

*Q* Given `L24D` , name the class its protein stability index places it in.
*A* zone 2

*Q* Given `Y1Q` , name the class its protein stability index places it in.
*A* zone 3

*Q* Given `S17N` , name the class its protein stability index places it in.
*A* zone 2

*Q* Given `E16L` , name the class its protein stability index places it in.
*A* zone 3

*Q* Given `Y12W` , name the class its protein stability index places it in.
*A* zone 1
